meta.source: patent US12384756B2

tgt: UniProt:O60885
assay_details: BRD4 degradation by western blot in A549 cells
Assay type: cell-based
Design: BRD4 expressed in cells; endogenous in cells
condition_details: A549, 24 hours; band intensity relative to beta-tubulin compared with control; read-out: DC50 2)
reported_property: DC50 (nM)
The reply should be a number in nM, with the unit left off.

Sample records with DC50:
- compound: "Cc1sc2c(c1C)C(c1ccc(Cl)cc1)=N[C@@H](CC(=O)Nc1ccc(OCCOCCOCCNc3ccc4cnn(C5CCC(=O)NC5=O)c(=O)c4c3)cc1)c1nnc(C)n1-2 (stereo partly drawn)"
  unit_text: "nM"
  DC50: 568
- compound: "Cc1sc2c(c1C)C(c1ccc(Cl)cc1)=N[C@@H](CC(=O)Nc1ccc(OCCOCCOCCOCCNc3cccc4cnn(C5CCC(=O)NC5=O)c(=O)c34)cc1)c1nnc(C)n1-2 (stereo partly drawn)"
  unit_text: "nM"
  DC50: 11.9
- compound: "Cc1sc2c(c1C)C(c1ccc(Cl)cc1)=N[C@@H](CC(=O)Nc1ccc(OCCOCCOCCNc3ccc4c(=O)n(C5CCC(=O)NC5=O)ncc4c3)cc1)c1nnc(C)n1-2 (stereo partly drawn)"
  unit_text: "nM"
  DC50: 49.6
- compound: "Cc1sc2c(c1C)C(c1ccc(Cl)cc1)=N[C@@H](CC(=O)NCOCCOCCOCCNc1cccc3cnn(C4CCC(=O)NC4=O)c(=O)c13)c1nnc(C)n1-2 (stereo partly drawn)"
  unit_text: "nM"
  DC50: 242
- compound: "Cc1sc2c(c1C)C(c1ccc(Cl)cc1)=N[C@@H](CC(=O)Nc1cccc(OCCOCCOCCNc3cccc4cnn(C5CCC(=O)NC5=O)c(=O)c34)c1)c1nnc(C)n1-2 (stereo partly drawn)"
  unit_text: "nM"
  DC50: 10.9

// moving on: another record for DC50
Summary: Cc1sc2c(c1C)C(c1ccc(Cl)cc1)=N[C@@H](CC(=O)Nc1ccc(OCCOCCOCCOCCNc3ccc4c(=O)n(C5CCC(=O)NC5=O)ncc4c3)cc1)c1nnc(C)n1-2 (stereo partly drawn) , UniProt:O60885, DC50 = 299

###

tgt: UniProtKB O60885
assay_details: BRD4 degradation by western blot in A549 cells
Format: cell-based
Design: BRD4 expressed in cells; endogenous in cells
condition_details: A549, 24 hours; band intensity compared with untreated control; read-out: DC50 1)
log10(DC50) values, listed per item
Please interpret these as log10 of DC50 where DC50 is in nM.

Use the examples below as a reference point.
- compound: "Cc1sc2c(c1C)C(c1ccc(Cl)cc1)=N[C@@H](CC(=O)Nc1cccc(OCCOCCOCCNc3cccc4cnn(C5CCC(=O)NC5=O)c(=O)c34)c1)c1nnc(C)n1-2 (stereo partly drawn) [Ex. 23]"
  log10(DC50): 1.05
- compound: "Cc1sc2c(c1C)C(c1ccc(Cl)cc1)=N[C@@H](CC(=O)Nc1ccc(OCCOCCOCCNc3ccc4cnn(C5CCC(=O)NC5=O)c(=O)c4c3)cc1)c1nnc(C)n1-2 (stereo partly drawn) [Ex. 26]"
  log10(DC50): 1.34
- compound: "Cc1sc2c(c1C)C(c1ccc(Cl)cc1)=N[C@@H](CC(=O)Nc1ccc(OCCOCCOCCOCCNc3ccc4c(=O)n(C5CCC(=O)NC5=O)ncc4c3)cc1)c1nnc(C)n1-2 (stereo partly drawn) [Ex. 28]"
  log10(DC50): 1.40
- compound: "Cc1sc2c(c1C)C(c1ccc(Cl)cc1)=N[C@@H](CC(=O)Nc1ccc(OCCOCCOCCNc3ccc4c(=O)n(C5CCC(=O)NC5=O)ncc4c3)cc1)c1nnc(C)n1-2 (stereo partly drawn) [Ex. 25]"
  log10(DC50): 1.76
- compound: "Cc1sc2c(c1C)C(c1ccc(Cl)cc1)=N[C@@H](CC(=O)Nc1ccc(OCCOCCOCCOCCNc3cccc4cnn(C5CCC(=O)NC5=O)c(=O)c34)cc1)c1nnc(C)n1-2 (stereo partly drawn) [Ex. 27]"
  log10(DC50): 0.96

Recorded result, Cc1sc2c(c1C)C(c1ccc(Cl)cc1)=N[C@@H](CC(=O)NCOCCOCCOCCNc1cccc3cnn(C4CCC(=O)NC4=O)c(=O)c13)c1nnc(C)n1-2 (stereo partly drawn) [Ex. 21] , log10(DC50): 3.20

###

Entries annotated with measured DC50
tgt: UniProtKB O60885
assay_details: BRD4 protein degradation by western blot in MDA-MB-231 cells
Assay type: cell-based
Parameters: BRD4 expressed in cells; endogenous in cells; host or cells: MDA-MB-231
condition_details: MDA-MB-231, 24 hours, 50% inhibition of protein expression; read-out: DC50 of BRD4-targeted PROTAC
Report the value in nM with no unit label.

Look over these answered cases.
- compound: "Cc1sc2c(c1C)C(c1ccc(Cl)cc1)=N[C@@H](CC(=O)NCCCN1CCN(CCCNc3cccc4cnn(C5CCC(=O)NC5=O)c(=O)c34)CC1)c1nnc(C)n1-2 (some centres unmarked)"
  tgt: "UniProtKB O60885"
  unit_text: "nM"
  DC50: 66.5
- compound: "Cc1sc2c(c1C)C(c1ccc(Cl)cc1)=N[C@@H](CC(=O)NCCOCCOCCOCCn1cc(CNc3cccc4cnn(C5CCC(=O)NC5=O)c(=O)c34)nn1)c1nnc(C)n1-2 (some centres unmarked)"
  tgt: "UniProtKB O60885"
  unit_text: "nM"
  DC50: 663
- compound: "Cc1sc2c(c1C)C(c1ccc(Cl)cc1)=N[C@@H](CC(=O)NCCOc1cccc3cnn(C4CCC(=O)NC4=O)c(=O)c13)c1nnc(C)n1-2 (some centres unmarked)"
  tgt: "UniProtKB O60885"
  unit_text: "nM"
  DC50: 108
- compound: "Cc1sc2c(c1C)C(c1ccc(Cl)cc1)=N[C@@H](CC(=O)NCCN1CCN(c3ccc4cnn(C5CCC(=O)NC5=O)c(=O)c4c3)CC1)c1nnc(C)n1-2 (some centres unmarked)"
  tgt: "UniProtKB O60885"
  unit_text: "nM"
  DC50: 40.7
- compound: "Cc1sc2c(c1C)C(c1ccc(Cl)cc1)=N[C@@H](CC(=O)NCc1cn(CCOCCOCCNc3cccc4c(=O)n(C5CCC(=O)NC5=O)ncc34)nn1)c1nnc(C)n1-2 (some centres unmarked)"
  tgt: "UniProtKB O60885"
  unit_text: "nM"
  DC50: 171
- compound: "Cc1sc2c(c1C)C(c1ccc(Cl)cc1)=N[C@@H](CC(=O)NCCNc1cccc3cnn(C4CCC(=O)NC4=O)c(=O)c13)c1nnc(C)n1-2 (some centres unmarked)"
  tgt: "UniProtKB O60885"
  unit_text: "nM"
  DC50: 185
- compound: "Cc1sc2c(c1C)C(c1ccc(Cl)cc1)=N[C@@H](CC(=O)Nc1cccc(OCCOCCOCCNc3ccc4c(=O)n(C5CCC(=O)NC5=O)ncc4c3)c1)c1nnc(C)n1-2 (some centres unmarked)"
  tgt: "UniProtKB O60885"
  unit_text: "nM"
  DC50: 4.4
- compound: "Cc1sc2c(c1C)C(c1ccc(Cl)cc1)=N[C@@H](CC(=O)Nc1cccc(OCCOCCOCCNc3cccc4cnn(C5CCC(=O)NC5=O)c(=O)c34)c1)c1nnc(C)n1-2 (some centres unmarked)"
  tgt: "UniProtKB O60885"
  unit_text: "nM"
  DC50: 2.6
- compound: "Cc1sc2c(c1C)C(c1ccc(Cl)cc1)=N[C@@H](CC(=O)Nc1ccc(OCCOCCOCCOCCNc3ccc4c(=O)n(C5CCC(=O)NC5=O)ncc4c3)cc1)c1nnc(C)n1-2 (some centres unmarked)"
  tgt: "UniProtKB O60885"
  unit_text: "nM"
  DC50: 3.3
- compound: "Cc1sc2c(c1C)C(c1ccc(Cl)cc1)=N[C@@H](CC(=O)Nc1ccc(OCCOCCOCCOCCNc3ccc4cnn(C5CCC(=O)NC5=O)c(=O)c4c3)cc1)c1nnc(C)n1-2 (some centres unmarked)"
  tgt: "UniProtKB O60885"
  unit_text: "nM"
  DC50: 3.7

Could you now look at the following compound, please?
Form field DC50, entry Cc1sc2c(c1C)C(c1ccc(Cl)cc1)=N[C@@H](CC(=O)NCCN1CCN(c3ccc4c(=O)n(C5CCC(=O)NC5=O)ncc4c3)CC1)c1nnc(C)n1-2 (some centres unmarked) : 5.9

###

# DC50 per record follows
tgt: BRD4 (Homo sapiens, UniProt O60885)
assay_details: BRD4 protein degradation by western blot in MDA-MB-231 cells
Type: cell-based
Design: BRD4 expressed in cells; endogenous in cells; host or cells: MDA-MB-231
condition_details: MDA-MB-231, 24 hours, 50% inhibition of protein expression; read-out: DC50 of BRD4-targeted PROTAC
Unit nM implied. Number only.

Answered examples (5):
- molecule: "Cc1sc2c(c1C)C(c1ccc(Cl)cc1)=N[C@@H](CC(=O)Nc1cccc(OCCOCCOCCNc3ccc4cnn(C5CCC(=O)NC5=O)c(=O)c4c3)c1)c1nnc(C)n1-2 (stereo partly drawn) [Example 42]"
  tgt: "BRD4 (Homo sapiens, UniProt O60885)"
  unit_text: "nM"
  DC50: 10.7
- molecule: "Cc1sc2c(c1C)C(c1ccc(Cl)cc1)=N[C@@H](CC(=O)NCc1cn(CCOCCOCCOCCNc3cccc4c(=O)n(C5CCC(=O)NC5=O)ncc34)nn1)c1nnc(C)n1-2 (stereo partly drawn) [Example 34]"
  tgt: "BRD4 (Homo sapiens, UniProt O60885)"
  unit_text: "nM"
  DC50: 38.6
- molecule: "Cc1sc2c(c1C)C(c1ccc(Cl)cc1)=N[C@@H](CC(=O)Nc1cccc(OCCOCCOCCNc3cccc4c(C)nn(C5CCC(=O)NC5=O)c(=O)c34)c1)c1nnc(C)n1-2 (stereo partly drawn) [Example 39]"
  tgt: "BRD4 (Homo sapiens, UniProt O60885)"
  unit_text: "nM"
  DC50: 0.575
- molecule: "Cc1sc2c(c1C)C(c1ccc(Cl)cc1)=N[C@@H](CC(=O)NCC#Cc1ccc3c(=O)n(C4CCC(=O)NC4=O)ncc3c1)c1nnc(C)n1-2 (stereo partly drawn) [Example 40]"
  tgt: "BRD4 (Homo sapiens, UniProt O60885)"
  unit_text: "nM"
  DC50: 10.9
- molecule: "Cc1sc2c(c1C)C(c1ccc(Cl)cc1)=N[C@@H](CC(=O)NCCNc1cccc3c(=O)n(C4CCC(=O)NC4=O)ncc13)c1nnc(C)n1-2 (stereo partly drawn) [Example 44]"
  tgt: "BRD4 (Homo sapiens, UniProt O60885)"
  unit_text: "nM"
  DC50: 930

Would you kindly look at the next entry?
Form: molecule = Cc1sc2c(c1C)C(c1ccc(Cl)cc1)=N[C@@H](CC(=O)NCCCCCNc1ccc3c(=O)n(C4CCC(=O)NC4=O)ncc3c1)c1nnc(C)n1-2 (stereo partly drawn) [Example 37] ; DC50 = 0.173
